Quick reference: pEC50 of the listed items.
target: SST2 (Homo sapiens); construct: host or cells: PathHunter CHO-K1 SST2 cells; experiment: PathHunter CHO-K1 SST2 Internalization Assay; type: cell-based; details: PathHunter CHO-K1 SST2 cells; 90 min at 37 C; luminescence; read-out: Internalization EC50
Sequence (P30874 whole entry): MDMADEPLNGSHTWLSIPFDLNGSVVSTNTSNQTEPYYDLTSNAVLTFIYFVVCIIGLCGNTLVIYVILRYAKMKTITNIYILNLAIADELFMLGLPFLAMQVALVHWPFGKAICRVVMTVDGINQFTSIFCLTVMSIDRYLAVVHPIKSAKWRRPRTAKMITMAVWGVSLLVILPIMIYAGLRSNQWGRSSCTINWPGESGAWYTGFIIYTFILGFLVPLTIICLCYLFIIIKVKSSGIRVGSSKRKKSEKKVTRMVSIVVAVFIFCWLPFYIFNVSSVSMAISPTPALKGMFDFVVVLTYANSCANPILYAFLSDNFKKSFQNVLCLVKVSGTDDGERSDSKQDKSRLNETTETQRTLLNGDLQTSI
In simple prose, pEC50 is minus the logarithm base ten of a concentration in moles per litre.

In the examples that follow, each entry is paired with its recorded pEC50.
{"columns": ["compound", "pEC50"],
 "data": [
  ["CC[C@H](C)[C@@H]([C@@H](CC(=O)N1CCC[C@H]1[C@H](OC)[C@@H](C)C(=O)N[C@H](C)[C@@H](O)c1ccccc1)OC)N(C)C(=O)[C@@H](NC(=O)[C@H](C(C)C)N(C)C(=O)OCc1ccc(NC(=O)[C@H](CCCNC(N)=O)NC(=O)[C@@H](NC(=O)c2cc(NCCOCCC(=O)NCCNc3ncc(-c4cc(C)cc(F)c4)c(N4CCC(N)CC4)c3-c3nc4ccc(Cl)cc4[nH]3)cc(C(=O)NC[C@@H](N)C(=O)O)c2)C(C)C)cc1)C(C)C", 7.64],
  ["CC[C@H](C)[C@@H]([C@@H](CC(=O)N1CCC[C@H]1[C@H](OC)[C@@H](C)C(=O)N[C@H](C)[C@@H](O)c1ccccc1)OC)N(C)C(=O)[C@@H](NC(=O)[C@H](C(C)C)N(C)C(=O)OCc1ccc(NC(=O)[C@H](CCCNC(N)=O)NC(=O)[C@@H](NC(=O)CCOCCC(=O)N(C)CC(=O)NCCNc2ncc(-c3cc(C)cc(F)c3)c(N3CCC(N)CC3)c2-c2nc3ccc(Cl)cc3[nH]2)C(C)C)c(O)c1)C(C)C", 8.39],
  ["CC[C@H](C)[C@@H]([C@@H](CC(=O)N1CCC[C@H]1[C@H](OC)[C@@H](C)C(=O)N[C@H](C)[C@@H](O)c1ccccc1)OC)N(C)C(=O)[C@@H](NC(=O)[C@H](C(C)C)N(C)C(=O)OCc1ccc(NC(=O)[C@H](C)NC(=O)[C@@H](NC(=O)C2(C(=O)NCCOCCC(=O)NCCNc3ncc(-c4cc(C)cc(F)c4)c(N4CCC(N)CC4)c3-c3nc4ccc(Cl)cc4[nH]3)CCC2)C(C)C)cc1C(=O)NCCN)C(C)C", 7.89],
  ["CC[C@H](C)[C@@H]([C@@H](CC(=O)N1CCC[C@H]1[C@H](OC)[C@@H](C)C(=O)N[C@H](C)[C@@H](O)c1ccccc1)OC)N(C)C(=O)[C@@H](NC(=O)[C@H](C(C)C)N(C)C(=O)OCc1ccc(NC(=O)[C@H](CCCNC(N)=O)NC(=O)[C@@H](NC(=O)c2cc(NC(=O)CCOCCC(=O)NCCNc3ncc(-c4cc(C)cc(F)c4)c(N4CCC(N)CC4)c3-c3nc4ccc(Cl)cc4[nH]3)cc(C(=O)NCC(=O)O)c2)C(C)C)cc1)C(C)C", 7.92],
  ["CC[C@H](C)[C@@H]([C@@H](CC(=O)N1CCC[C@H]1[C@H](OC)[C@@H](C)C(=O)N[C@H](C)[C@@H](O)c1ccccc1)OC)N(C)C(=O)[C@@H](NC(=O)[C@H](C(C)C)N(C)C(=O)OCc1ccc(NC(=O)[C@H](CCCNC(N)=O)NC(=O)[C@@H](NC(=O)c2cc(NCCOCCOCCOCCOCCC(=O)NCCNc3ncc(-c4cc(C)cc(F)c4)c(N4CCC(N)CC4)c3-c3nc4ccc(Cl)cc4[nH]3)cc(C(=O)NCC(=O)O)c2)C(C)C)cc1)C(C)C", 7.68],
  ["CC[C@@H](C)[C@H]([C@H](CC(=O)N1CCCC1[C@@H](OC)[C@H](C)C(=O)N[C@@H](C)[C@H](O)c1ccccc1)OC)N(C)C(=O)[C@H](NC(=O)[C@@H](C(C)C)N(C)C(=O)OCc1ccc(NC(=O)[C@H](C)NC(=O)[C@H](NC(=O)CCOCCC(=O)NCCNc2ncc(-c3cc(C)cc(F)c3)c(N3CCC(N)CC3)c2-c2nc3ccc(Cl)cc3[nH]2)C(C)C)c(O[C@H]2O[C@@H](C(=O)O)[C@H](O)[C@@H](O)[C@@H]2O)c1)C(C)C (stereo partly drawn)", 8.22],
  ["CC[C@H](C)[C@@H]([C@@H](CC(=O)N1CCC[C@H]1[C@H](OC)[C@@H](C)C(=O)N[C@H](C)[C@@H](O)c1ccccc1)OC)N(C)C(=O)[C@@H](NC(=O)[C@H](C(C)C)N(C)C(=O)OCc1ccc(NC(=O)[C@H](CCCNC(N)=O)NC(=O)[C@@H](NC(=O)CCOCCC(=O)NCCNc2ncc(-c3cc(C)cc(F)c3)c(N3CCC(N)CC3)c2-c2nc3ccc(Cl)cc3[nH]2)C(C)C)c(C)c1)C(C)C", 8.60],
  ["CC[C@H](C)[C@@H]([C@@H](CC(=O)N1CCC[C@H]1[C@H](OC)[C@@H](C)C(=O)N[C@H](C)[C@@H](O)c1ccccc1)OC)N(C)C(=O)[C@@H](NC(=O)[C@H](C(C)C)N(C)C(=O)OCc1ccc(NC(=O)[C@H](CCCNC(N)=O)NC(=O)[C@@H](NC(=O)c2cc(NC(=O)CCOCCOCCOCCOCCC(=O)NCCNc3ncc(-c4cc(C)cc(F)c4)c(N4CCC(N)CC4)c3-c3nc4ccc(Cl)cc4[nH]3)cc(C(=O)NCC(=O)O)c2)C(C)C)cc1)C(C)C", 8.08]
]}

Problem: # lookup: pEC50 of "CC[C@H](C)[C@@H]([C@@H](CC(=O)N1CCC[C@H]1[C@H](OC)[C@@H](C)C(=O)N[C@H](C)[C@@H](O)c1ccccc1)OC)N(C)C(=O)[C@@H](NC(=O)[C@H](C(C)C)N(C)C(=O)OCc1ccc(NC(=O)[C@H](CCCNC(N)=O)NC(=O)[C@@H](NC(=O)C[C@@H](N)C(=O)NCCOCCOCCOCCOCCC(=O)NCCNc2ncc(-c3cc(C)cc(F)c3)c(N3CCC(NC)CC3)c2-c2nc3ccc(Cl)cc3[nH]2)C(C)C)c(O[C@@H]2O[C@H](C(=O)O)[C@@H](O)[C@H](O)[C@H]2O)c1)C(C)C"
Solution: 8.06

----------
Quick reference: pEC50 of the listed items.
biological target: human somatostatin receptor subtype 2 (Homo sapiens, UniProt P30874); construct: expressed in transfected cells; test: Functional assay for SSTR2 agonists (HTRF cAMP); type: cell-based; details: CHO-K1 cells stably expressing human SST2; NKH477-stimulated cAMP; 20 min at 37 C; read-out: hSST2 cAMP Avg EC50
Sequence (P30874 whole entry): as above
In simple prose, pEC50 is minus the logarithm base ten of a concentration in moles per litre.

In the examples that follow, each entry is paired with its recorded pEC50.
{"columns": ["smilesRecord", "number"],
 "data": [
  ["CC[C@H](C)[C@@H]([C@@H](CC(=O)N1CCC[C@H]1[C@H](OC)[C@@H](C)C(=O)N[C@H](C)[C@@H](O)c1ccccc1)OC)N(C)C(=O)[C@@H](NC(=O)[C@H](C(C)C)N(C)C(=O)OCc1ccc(NC(=O)[C@H](CCCNC(N)=O)NC(=O)[C@@H](NC(=O)[C@H](CCC(=O)O)NC(=O)CCOCCOCCOCCOCCC(=O)NCCNc2ncc(-c3cc(C)cc(F)c3)c(N3CCC(N)CC3)c2-c2nc3ccc(Cl)cc3[nH]2)C(C)C)cc1C(=O)O)C(C)C", 9.72],
  ["CC[C@H](C)[C@@H]([C@@H](CC(=O)N1CCC[C@H]1[C@H](OC)[C@@H](C)C(=O)N[C@H](C)[C@@H](O)c1ccccc1)OC)N(C)C(=O)[C@@H](NC(=O)[C@H](C(C)C)N(C)C(=O)OCc1ccc(NC(=O)[C@H](CCCNC(N)=O)NC(=O)[C@@H](NC(=O)c2cc(OCCOCCOCCOCCOCCC(=O)NCCNc3ncc(-c4cc(C)cc(F)c4)c(N4CCC(N)CC4)c3-c3nc4ccc(Cl)cc4[nH]3)cc(C(=O)NCC(=O)O)c2)C(C)C)cc1)C(C)C", 9.49],
  ["CC[C@H](C)[C@@H]([C@@H](CC(=O)N1CCC[C@H]1[C@H](OC)[C@@H](C)C(=O)N[C@H](C)[C@@H](O)c1ccccc1)OC)N(C)C(=O)[C@@H](NC(=O)[C@H](C(C)C)N(C)C(=O)OCc1ccc(NC(=O)[C@H](CCCNC(N)=O)NC(=O)[C@@H](NS(=O)(=O)C[C@H](C)CC(=O)CCOCCC(=O)NCCNc2ncc(-c3cc(C)cc(F)c3)c(N3CCC(N)CC3)c2-c2nc3ccc(Cl)cc3[nH]2)C(C)C)c(O[C@@H]2C[C@H](C(=O)O)[C@@H](O)[C@H](O)[C@H]2O)c1)C(C)C", 9.59],
  ["CC[C@H](C)[C@@H]([C@@H](CC(=O)N1CCC[C@H]1[C@H](OC)[C@@H](C)C(=O)N[C@H](C)[C@@H](O)c1ccccc1)OC)N(C)C(=O)[C@@H](NC(=O)[C@H](C(C)C)N(C)C(=O)OCc1ccc(NC(=O)[C@H](CCCNC(N)=O)NC(=O)[C@@H](NS(=O)(=O)C[C@H](C)NC(=O)CCOCCC(=O)NCCNc2ncc(-c3cc(C)cc(F)c3)c(N3CCC(N)CC3)c2-c2nc3ccc(Cl)cc3[nH]2)C(C)C)c(O[C@@H]2O[C@H](C(=O)N(C)CC(=O)O)[C@@H](O)[C@H](O)[C@H]2O)c1)C(C)C", 10.11]
]}

Problem: Report pEC50 for "CC[C@H](C)[C@@H]([C@@H](CC(=O)N1CCC[C@H]1[C@H](OC)[C@@H](C)C(=O)N[C@H](C)[C@@H](O)c1ccccc1)OC)N(C)C(=O)[C@@H](NC(=O)[C@H](C(C)C)N(C)C(=O)OCc1ccc(NC(=O)[C@H](CCCNC(N)=O)NC(=O)[C@@H](NC(=O)CCOCCC(=O)NCCNc2ncc(-c3cc(C)cc(F)c3)c(N3CCC(N)CC3)c2-c2nc3ccc(Cl)cc3[nH]2)C(C)C)c(O[C@@H]2O[C@H](C(=O)NCCN)[C@@H](O)[C@H](O)[C@H]2O)c1)C(C)C" tested on human somatostatin receptor subtype 2 (Homo sapiens, UniProt P30874).
Solution: 9.70
